MEASUREMENT NOTES: Cytotoxicity against human KBVIN cells assessed as cell viability at 10 ug/ml
Format: cell-based
RUN CONDITIONS: read-out: Activity
METRIC: viability at 10 ug/ml

Give me measured viability at 10 ug/ml, please, for this molecule: COc1cc(C(O)CO)c(I)c(OC)c1OC (stereo unspecified)
> 80%

Give me measured viability at 10 ug/ml, please, for this molecule: C/C=C/C(=O)OCC(OC(=O)CCCCCCCCCCC)c1cc(OC)c(OC)c(OC)c1 (stereo unspecified)
41.1%

Give me measured viability at 10 ug/ml, please, for this molecule: COc1cc(C(=O)OCC(OC(=O)c2cc(OC)c(OC)c(OC)c2)c2cc(OC)c(OC)c(OC)c2I)cc(OC)c1OC (stereo unspecified)
47%

Give me measured viability at 10 ug/ml, please, for this molecule: COc1cc(C(=O)OCC(O)c2cc(OC)c(OC)c(OC)c2I)cc(OC)c1OC (stereo unspecified)
> 80%

Give me measured viability at 10 ug/ml, please, for this molecule: COc1ccc(/C=C/C(=O)OCC(OC(=O)/C=C/c2ccccc2)c2cc(OC)c(OC)c(OC)c2I)cc1OC (stereo unspecified)
> 80%

Give me measured viability at 10 ug/ml, please, for this molecule: COc1cc(C(=O)OCC(O[Si](C)(C)C(C)(C)C)c2cc(OC)c(OC)c(OC)c2)cc(OC)c1OC (stereo unspecified)
> 80%

Give me measured viability at 10 ug/ml, please, for this molecule: COc1cc(C(O)CO)cc(OC)c1OC (stereo unspecified)
> 80%

Give me measured viability at 10 ug/ml, please, for this molecule: COc1cc(C(=O)OCC(O[Si](C)(C)C(C)(C)C)c2cc(OC)c(OC)c(OC)c2I)cc(OC)c1OC (stereo unspecified)
36.7%

Give me measured viability at 10 ug/ml, please, for this molecule: C/C=C/C=C/C(=O)OCC(OC(=O)/C=C/C=C/C)c1cc(OC)c(OC)c(OC)c1 (stereo unspecified)
50.1%

Give me measured viability at 10 ug/ml, please, for this molecule: COc1cc(C(O)COC(=O)C2CCCCC2)cc(OC)c1OC (stereo unspecified)
> 80%

Give me measured viability at 10 ug/ml, please, for this molecule: COc1cc(C(COC(C)=O)OC(C)=O)cc(OC)c1OC (stereo unspecified)
> 80%

---

Please provide measured viability at 10 ug/ml for the entries that follow.
MEASUREMENT NOTES: Cytotoxicity against human A549 cells assessed as cell viability at 10 ug/ml
Format: cell-based
RUN CONDITIONS: read-out: Activity

Give me measured viability at 10 ug/ml, please, for this compound: COc1cc(C(=O)OCC(OC(=O)c2cc(OC)c(OC)c(OC)c2)c2cc(OC)c(OC)c(OC)c2I)cc(OC)c1OC (stereo unspecified)
56.2%

Give me measured viability at 10 ug/ml, please, for this compound: COc1cc(C(=O)OCC(O)c2cc(OC)c(OC)c(OC)c2I)cc(OC)c1OC (stereo unspecified)
> 80%

Give me measured viability at 10 ug/ml, please, for this compound: C/C=C/C=C/C(=O)OCC(OC(=O)/C=C/C=C/C)c1cc(OC)c(OC)c(OC)c1 (stereo unspecified)
49.6%

Give me measured viability at 10 ug/ml, please, for this compound: COc1cc(C(O)CO)c(I)c(OC)c1OC (stereo unspecified)
> 80%

Give me measured viability at 10 ug/ml, please, for this compound: COc1cc(C(O)COC(=O)C2CCCCC2)cc(OC)c1OC (stereo unspecified)
> 80%

Give me measured viability at 10 ug/ml, please, for this compound: C/C=C/C(=O)OCC(OC(=O)CCCCCCCCCCC)c1cc(OC)c(OC)c(OC)c1 (stereo unspecified)
51.1%

Give me measured viability at 10 ug/ml, please, for this compound: COc1cc(C(=O)OCC(O[Si](C)(C)C(C)(C)C)c2cc(OC)c(OC)c(OC)c2I)cc(OC)c1OC (stereo unspecified)
37%

Give me measured viability at 10 ug/ml, please, for this compound: COc1cc(C(COC(C)=O)OC(C)=O)cc(OC)c1OC (stereo unspecified)
> 80%

Give me measured viability at 10 ug/ml, please, for this compound: COc1ccc(/C=C/C(=O)OCC(OC(=O)/C=C/c2ccccc2)c2cc(OC)c(OC)c(OC)c2I)cc1OC (stereo unspecified)
> 80%

Give me measured viability at 10 ug/ml, please, for this compound: COc1cc(C(=O)OCC(O[Si](C)(C)C(C)(C)C)c2cc(OC)c(OC)c(OC)c2)cc(OC)c1OC (stereo unspecified)
> 80%

Give me measured viability at 10 ug/ml, please, for this compound: COc1cc(C(O)CO)cc(OC)c1OC (stereo unspecified)
> 80%

---

Tested on: KBVIN
RUN CONDITIONS: Homo sapiens
Description: Inhibition of P-gp-mediated calcein AM efflux in human KBVIN cells assessed as fluorescence intensity at 10 uM incubated for 1 hr prior to calcein AM-addition by fluorimetric analysis (Rvb = 61.9 +/- 7.13)
METRIC: Flu intensity

Find Flu intensity for COc1cc(C(=O)OCC(O[Si](C)(C)C(C)(C)C)c2cc(OC)c(OC)c(OC)c2)cc(OC)c1OC (centres undefined) on KBVIN and write it down.
184

Find Flu intensity for COc1cc(C(=O)OCC(OC(=O)c2cc(OC)c(OC)c(OC)c2)c2cc(OC)c(OC)c(OC)c2I)cc(OC)c1OC (centres undefined) on KBVIN and write it down.
456

Find Flu intensity for COc1ccc(/C=C/C(=O)OCC(OC(=O)/C=C/c2ccccc2)c2cc(OC)c(OC)c(OC)c2I)cc1OC (centres undefined) on KBVIN and write it down.
414

Find Flu intensity for COc1cc(C(=O)OCC(O)c2cc(OC)c(OC)c(OC)c2I)cc(OC)c1OC (centres undefined) on KBVIN and write it down.
226

---

MEASUREMENT NOTES: Cytotoxicity against human KB cells assessed as cell viability at 10 ug/ml
Format: cell-based
RUN CONDITIONS: read-out: Activity
Please provide measured viability at 10 ug/ml for the entries that follow.

Give me measured viability at 10 ug/ml, please, for this compound: COc1cc(C(O)CO)cc(OC)c1OC (stereo unspecified)
> 80%

Give me measured viability at 10 ug/ml, please, for this compound: COc1cc(C(COC(C)=O)OC(C)=O)cc(OC)c1OC (stereo unspecified)
> 80%

Give me measured viability at 10 ug/ml, please, for this compound: COc1cc(C(=O)OCC(O[Si](C)(C)C(C)(C)C)c2cc(OC)c(OC)c(OC)c2)cc(OC)c1OC (stereo unspecified)
> 80%

Give me measured viability at 10 ug/ml, please, for this compound: COc1cc(C(=O)OCC(O[Si](C)(C)C(C)(C)C)c2cc(OC)c(OC)c(OC)c2I)cc(OC)c1OC (stereo unspecified)
26.1%

Give me measured viability at 10 ug/ml, please, for this compound: COc1cc(C(=O)OCC(O)c2cc(OC)c(OC)c(OC)c2I)cc(OC)c1OC (stereo unspecified)
> 80%

Give me measured viability at 10 ug/ml, please, for this compound: COc1ccc(/C=C/C(=O)OCC(OC(=O)/C=C/c2ccccc2)c2cc(OC)c(OC)c(OC)c2I)cc1OC (stereo unspecified)
> 80%

Give me measured viability at 10 ug/ml, please, for this compound: COc1cc(C(=O)OCC(OC(=O)c2cc(OC)c(OC)c(OC)c2)c2cc(OC)c(OC)c(OC)c2I)cc(OC)c1OC (stereo unspecified)
75.4%

Give me measured viability at 10 ug/ml, please, for this compound: C/C=C/C=C/C(=O)OCC(OC(=O)/C=C/C=C/C)c1cc(OC)c(OC)c(OC)c1 (stereo unspecified)
74.7%

Give me measured viability at 10 ug/ml, please, for this compound: COc1cc(C(O)COC(=O)C2CCCCC2)cc(OC)c1OC (stereo unspecified)
> 80%

Give me measured viability at 10 ug/ml, please, for this compound: COc1cc(C(O)CO)c(I)c(OC)c1OC (stereo unspecified)
> 80%

Give me measured viability at 10 ug/ml, please, for this compound: C/C=C/C(=O)OCC(OC(=O)CCCCCCCCCCC)c1cc(OC)c(OC)c(OC)c1 (stereo unspecified)
76.2%

---

Please provide measured viability at 72 h, 10 µM for the entries that follow.
MEASUREMENT NOTES: Cytotoxicity against human KBVIN cells assessed as cell viability at 10 uM after 72 hrs by SRB method relative to control
Type: cell-based
RUN CONDITIONS: read-out: Activity
Report the figure in % without appending any unit label.

Give me measured viability at 72 h, 10 µM, please, for this compound: COc1cc(C(=O)OCC(O[Si](C)(C)C(C)(C)C)c2cc(OC)c(OC)c(OC)c2I)cc(OC)c1OC (stereo unspecified)
41

Give me measured viability at 72 h, 10 µM, please, for this compound: COc1cc(C(=O)OCC(O)c2cc(OC)c(OC)c(OC)c2I)cc(OC)c1OC (stereo unspecified)
83.3

Give me measured viability at 72 h, 10 µM, please, for this compound: COc1cc(C(O)CO)cc(OC)c1OC (stereo unspecified)
92.4

Give me measured viability at 72 h, 10 µM, please, for this compound: C/C=C/C(=O)OCC(OC(=O)CCCCCCCCCCC)c1cc(OC)c(OC)c(OC)c1 (stereo unspecified)
79.9

Give me measured viability at 72 h, 10 µM, please, for this compound: COc1cc(C(COC(C)=O)OC(C)=O)cc(OC)c1OC (stereo unspecified)
91.5

Give me measured viability at 72 h, 10 µM, please, for this compound: COc1cc(C(O)COC(=O)C2CCCCC2)cc(OC)c1OC (stereo unspecified)
110

Give me measured viability at 72 h, 10 µM, please, for this compound: COc1ccc(/C=C/C(=O)OCC(OC(=O)/C=C/c2ccccc2)c2cc(OC)c(OC)c(OC)c2I)cc1OC (stereo unspecified)
95.3

Give me measured viability at 72 h, 10 µM, please, for this compound: COc1cc(C(O)CO)c(I)c(OC)c1OC (stereo unspecified)
90

Give me measured viability at 72 h, 10 µM, please, for this compound: COc1cc(C(=O)OCC(OC(=O)c2cc(OC)c(OC)c(OC)c2)c2cc(OC)c(OC)c(OC)c2I)cc(OC)c1OC (stereo unspecified)
87.1

Give me measured viability at 72 h, 10 µM, please, for this compound: C/C=C/C=C/C(=O)OCC(OC(=O)/C=C/C=C/C)c1cc(OC)c(OC)c(OC)c1 (stereo unspecified)
81.5

Give me measured viability at 72 h, 10 µM, please, for this compound: COc1cc(C(=O)OCC(O[Si](C)(C)C(C)(C)C)c2cc(OC)c(OC)c(OC)c2)cc(OC)c1OC (stereo unspecified)
74.3
